Lab note: MBIC readings collected with S. aureus clinical strain 030N biofilm for the following substances.
No end group written: not given here.
Give just the numeric value; µg/mL need not be written.

// worked examples, MBIC included
| substance | number |
| --- | --- |
| ILRWPWWPWRRK-NH2 [Omiganan TFA^−] | 16 |
| ILRWPWWPWRRK-NH2 [Omiganan AcO^−] | 16 |

Ask: Report MBIC under test system S. aureus clinical strain 030N biofilm for ILRWPWWPWRRK-NH2 [Omiganan Cl^−] .
Reply: 16

Ask: Report MBIC under test system S. aureus clinical strain 030N biofilm for KRRWPWWPWRLI-NH2 [Retro-omiganan TFA^−] .
Reply: 8

###

Quick reference for MBIC among some substances
Tested on: S. aureus ATCC 6538 biofilm
measurementContext: ATCC 6538, reference strain
No end group written: not given here.
Give just the numeric value; µg/mL need not be written.

// worked examples, MBIC included
| substance | displayUnit | number |
| --- | --- | --- |
| ILRWPWWPWRRK-NH2 [Omiganan Cl^−] | µg/mL | 32 |
| ILRWPWWPWRRK-NH2 [Omiganan AcO^−] | µg/mL | 32 |
| KRRWPWWPWRLI-NH2 [Retro-omiganan TFA^−] | µg/mL | 16 |

Ask: Give me measured MBIC, please, for this substance: ILRWPWWPWRRK-NH2 [Omiganan TFA^−]
Reply: 32

###

Tested on: S. aureus ATCC 33591 (MRSA)
assayDetails: microbe, parasite or virus in culture
measurementContext: S. aureus ATCC 33591 (MRSA) biofilm treated under flow with Retro-Omiganan (half MBEC) for 24 h
Experimental: Clinical S. aureus strains were collected from patients with atopic dermatitis during their visits to the Outpatient Clinic and hospitalization in the Department of Dermatology, Venereology and Allergology at Medical University of Gdańsk (following the approval from the ethics committee, Approval Number NKBBN/242–477/2014). […] Minimum inhibitory concentrations (MICs) were determined according to the Clinical and Laboratory Standards Institute recommendations. […]
metric: MIC

// worked examples, MIC included
| molecule | result |
| --- | --- |
| C/C(=C\C(=O)OCCCCCCCCC(=O)O)C[C@@H]1OC[C@H](C[C@@H]2O[C@H]2[C@@H](C)[C@H](C)O)[C@@H](O)[C@H]1O [Mupirocin] | ≤ 0.25 µg/mL |
| CCC[C@@H]1C[C@@H](C(=O)N[C@@H]([C@H]2O[C@H](SC)[C@H](O)[C@@H](O)[C@H]2O)[C@@H](C)O)N(C)C1 [Lincomycin] | > 128 µg/mL |
| CC(=O)NC[C@H]1CN(c2ccc(N3CCOCC3)c(F)c2)C(=O)O1 [Linezolid] | 1.0 µg/mL |

Ask: Report MIC under test system S. aureus ATCC 33591 (MRSA) for CC(=O)O[C@H]1C[C@@]2(C)[C@@H](C[C@@H](O)[C@H]3[C@@]4(C)CC[C@@H](O)[C@@H](C)[C@@H]4CC[C@@]32C)/C1=C(\CCC=C(C)C)C(=O)O [Fusidic Acid] .
Reply: ≤ 0.25 µg/mL

Ask: Report MIC under test system S. aureus ATCC 33591 (MRSA) for CC1(C)S[C@@H]2[C@H](NC(=O)[C@H](N)c3ccccc3)C(=O)N2[C@H]1C(=O)O [Ampicillin] .
Reply: > 128 µg/mL

All values here come from paper PMC12055641.
